Measured values drawn from patent US20180298024A1 for this set.

# assayedTarget: Adenosine Transporter (Cavia porcellus)
# Sequence (H0V4R7 1-461): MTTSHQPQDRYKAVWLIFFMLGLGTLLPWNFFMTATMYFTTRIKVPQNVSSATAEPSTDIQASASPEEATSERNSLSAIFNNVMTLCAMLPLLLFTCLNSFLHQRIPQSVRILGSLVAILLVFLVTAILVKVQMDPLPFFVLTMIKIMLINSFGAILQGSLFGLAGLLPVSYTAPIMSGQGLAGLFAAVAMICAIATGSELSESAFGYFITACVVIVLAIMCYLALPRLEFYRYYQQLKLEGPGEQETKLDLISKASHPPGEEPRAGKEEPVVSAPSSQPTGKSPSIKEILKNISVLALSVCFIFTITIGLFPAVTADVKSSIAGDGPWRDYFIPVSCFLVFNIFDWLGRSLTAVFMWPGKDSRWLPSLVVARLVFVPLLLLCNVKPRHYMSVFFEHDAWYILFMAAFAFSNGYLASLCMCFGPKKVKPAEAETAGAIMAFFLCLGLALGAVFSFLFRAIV
# runDescription: Panlab assay, Adenosine Transporter
# Assay type: binding
# conditionDescription: reference standard; Cheng and Prusoff
measuredParameter: Ki (nM)
Give a bare numeral; the unit nM is implied.

Determine its reported Ki: O=[N+]([O-])c1ccc(CSc2ncnc3c2ncn3C2OC(CO)C(O)C2O)cc1 (stereo not shown) [nitrobenzylthioinosine, Nitrobenzylthioinosine, reference compound] 0.12
